# Tested on: ATP;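 also: ATP exposure 15 min at 22 °C before imaging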
# ASSAY: switch fluorescence ratio, 500 uM ATP over buffer (Cy3 cluster intensity, sum of 5 cycles each) (fold (ratio)); higher = stronger signal-on switching upon ATP binding; sequences stand for … in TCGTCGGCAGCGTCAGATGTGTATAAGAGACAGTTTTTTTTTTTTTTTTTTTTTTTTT…TC
# CONDITION: aptamer strand: ATP DNA aptamer (quencher-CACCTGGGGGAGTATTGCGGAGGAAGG + anchor), 100 nM annealed; ATP concentration: 500 uM
OUTCOME_MEASURE: switch fluorescence ratio
Lab note: record just the number, no unit beside it.

Sample answers from the record:
* CGGTACGAGC | 0.992
* GAGCGTCACG | 1.01
* GGCGGGGGTC | 1.01
* TTTTTCGTTG | 0.997
* GTTTAGATG | 0.989

For CGAATTTGCC , what is its reported switch fluorescence ratio?
1.01

Which switch fluorescence ratio is reported for this sequence? GCGGGGGGAG
1.02

Could you share which switch fluorescence ratio value was measured for TAGTTCGGTT ?
1.01

Tell me the measured switch fluorescence ratio of TCGCGTTTTT , please.
0.994

Bench note: what switch fluorescence ratio did GTTGTTATTT show?
1

Can you look up the measured switch fluorescence ratio of CTAGTTGGTT for me?
0.971

// query switch fluorescence ratio value for entry GATAATATTT
0.986

Data request, read-out switch fluorescence ratio, for AAGATAGAAC
0.978

Which switch fluorescence ratio value is on record for ATTGGGTGTC ?
0.985

---

# Test system: ATP;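 also: ATP exposure 15 min at 22 °C before imaging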
# ASSAY: switch fluorescence ratio, 500 uM ATP over buffer (Cy3 cluster intensity, sum of 5 cycles each) (fold (ratio)); higher = stronger signal-on switching upon ATP binding; sequences stand for … in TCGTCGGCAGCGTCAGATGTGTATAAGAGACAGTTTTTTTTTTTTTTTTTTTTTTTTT…TC
# CONDITION: aptamer strand: ATP DNA aptamer (quencher-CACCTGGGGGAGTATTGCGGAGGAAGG + anchor), 100 nM annealed; ATP concentration: 500 uM
The reader will find reported switch fluorescence ratio values listed item by item below.
Keep it simple and answer with nothing but the number.

Some entries whose results are on file:
* AAAAAAAACC | 1.4
* TTTGAGTATT | 0.992
* TCGCAGCTTG | 1.05
* GTTAACGTTT | 0.982

Form field: reported switch fluorescence ratio of AGGGTAGGTG
1.09

Record request: switch fluorescence ratio value, item GTTTTATCCG
1.03

Which value of switch fluorescence ratio has been reported for AGTATTGCTC in the records?
1.01

Can you share its switch fluorescence ratio? I mean this sequence: TTTGAATTAC
1.17

So what does the record say about switch fluorescence ratio for TAGCCGATGG ?
0.994

Query (sequence): CGGTTGCCCG ; field requested: switch fluorescence ratio
0.979

Field request: switch fluorescence ratio | item: ATCACGTTTT
0.991

Would you mind telling me what switch fluorescence ratio value was observed for TATCTGGGTG ?
1.06

Reported switch fluorescence ratio, sequence GGACCAAAAG : ____
1

Could you tell me which switch fluorescence ratio is on file for GGAGAGGCGT ?
1

Looking for the measured switch fluorescence ratio of AGGGAATTGT , can you help?
1

Sample TGCATTTTGC — what was its switch fluorescence ratio?
1.08

Looking for the measured switch fluorescence ratio of AATCCTGCGT , can you help?
1.16

Value lookup for switch fluorescence ratio; key = TTGGAAAGTG
1.05

Using the record for ATAGGGTCGG , report its switch fluorescence ratio.
1.02

I am curious: what switch fluorescence ratio value has been reported for CTATCCTCTT ?
0.972

Any idea what its switch fluorescence ratio is? The sequence is GGGCGAAGGG
0.987

Param item = TCTGGCCGGC ; retrieve measured switch fluorescence ratio.
0.986

Need switch fluorescence ratio, item TTGCGTGATG
1.02

Query (sequence): CTGGTTGGGG ; field requested: switch fluorescence ratio
1

Looking for the measured switch fluorescence ratio of TATTTTACCA , can you help?
1.02

---

# Test system: ATP;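 also: ATP exposure 15 min at 22 °C before imaging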
# ASSAY: switch fluorescence ratio, 500 uM ATP over buffer (Cy3 cluster intensity, sum of 5 cycles each) (fold (ratio)); higher = stronger signal-on switching upon ATP binding; sequences stand for … in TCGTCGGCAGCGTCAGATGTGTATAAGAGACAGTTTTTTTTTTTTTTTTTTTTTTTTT…TC
# CONDITION: aptamer strand: ATP DNA aptamer (quencher-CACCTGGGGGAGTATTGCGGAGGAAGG + anchor), 100 nM annealed; ATP concentration: 500 uM
# switch fluorescence ratio annotations
Form field (numeric): enter value without unit.

Worked examples, 3 sequences total:
- GGGTAGGGGA: 1
- TGGGAGTAGC: 0.991
- CGCCCGCACG: 1.93

Quick one: switch fluorescence ratio for AGGAGGCAGG ?
1.03

Look up switch fluorescence ratio for this sequence: CTCGAGAAGA
1.01

Bench note: what switch fluorescence ratio did ACTCGCTGGG show?
1.11

Form field: reported switch fluorescence ratio of ATATATTTTA
1.01

Tell me the measured switch fluorescence ratio of GGGGGACCCA , please.
0.982

So what's the measured switch fluorescence ratio for this one? TAGGTTGGTG
1

---

# Test system: ATP;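 also: ATP exposure 15 min at 22 °C before imaging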
# ASSAY: switch fluorescence ratio, 500 uM ATP over buffer (Cy3 cluster intensity, sum of 5 cycles each) (fold (ratio)); higher = stronger signal-on switching upon ATP binding; sequences stand for … in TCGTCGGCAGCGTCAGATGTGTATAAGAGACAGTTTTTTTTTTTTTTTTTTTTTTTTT…TC
# CONDITION: aptamer strand: ATP DNA aptamer (quencher-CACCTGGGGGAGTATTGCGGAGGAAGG + anchor), 100 nM annealed; ATP concentration: 500 uM
OUTCOME_MEASURE: switch fluorescence ratio
Field format: numeric only.

Below, 5 sequences whose answers are already recorded.
* CTTGGAGGGA | 1.02
* TTAAATAGCG | 0.982
* TGTTTTTGAG | 0.989
* AATGGGTACT | 1
* CTATTAGGGA | 0.973

So what does the record say about switch fluorescence ratio for TTTTAAGAGA ?
1.01

Need switch fluorescence ratio of GGTGTTGAGT , thanks.
0.993

Can you look up the measured switch fluorescence ratio of ATAGACGGTT for me?
1.02

Data request, read-out switch fluorescence ratio, for CAGGGAAGGG
1.01

Query: switch fluorescence ratio; subject: GGGACAGGTA
1.02

---

# maps each entry to its switch fluorescence ratio
# Tested on: ATP;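 also: ATP exposure 15 min at 22 °C before imaging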
# ASSAY: switch fluorescence ratio, 500 uM ATP over buffer (Cy3 cluster intensity, sum of 5 cycles each) (fold (ratio)); higher = stronger signal-on switching upon ATP binding; sequences stand for … in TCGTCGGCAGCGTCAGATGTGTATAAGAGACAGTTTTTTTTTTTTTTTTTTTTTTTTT…TC
# CONDITION: aptamer strand: ATP DNA aptamer (quencher-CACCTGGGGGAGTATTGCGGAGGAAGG + anchor), 100 nM annealed; ATP concentration: 500 uM
Would you mind answering with just the numeric figure?

Example results:
* AAAGATTATT | 1
* GTGGTGTTTT | 1

Now consider a different sequence.
Short answer please: switch fluorescence ratio, ATP, entry GTGGGTATGT
0.983

---

# System: ATP;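 also: ATP exposure 15 min at 22 °C before imaging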
# ASSAY: switch fluorescence ratio, 500 uM ATP over buffer (Cy3 cluster intensity, sum of 5 cycles each) (fold (ratio)); higher = stronger signal-on switching upon ATP binding; sequences stand for … in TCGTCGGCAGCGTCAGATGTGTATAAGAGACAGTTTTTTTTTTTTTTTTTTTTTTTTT…TC
# CONDITION: aptamer strand: ATP DNA aptamer (quencher-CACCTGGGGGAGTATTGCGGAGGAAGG + anchor), 100 nM annealed; ATP concentration: 500 uM
OUTCOME_MEASURE: switch fluorescence ratio
A bare number is all that is needed in reply.

* TTTATAACAC | 1.05
* TCGGGGCCGG | 0.964
* CACTCATTGG | 1.04
* TGGGTTCTAT | 0.987
* TTGTGGAGAG | 1.09
* TTTTAAACCG | 1.05

Consider the additional sequence presented here.
Param item = GATTCTCGGG ; retrieve measured switch fluorescence ratio.
1.01

---

# System: ATP;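 also: ATP exposure 15 min at 22 °C before imaging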
# ASSAY: switch fluorescence ratio, 500 uM ATP over buffer (Cy3 cluster intensity, sum of 5 cycles each) (fold (ratio)); higher = stronger signal-on switching upon ATP binding; sequences stand for … in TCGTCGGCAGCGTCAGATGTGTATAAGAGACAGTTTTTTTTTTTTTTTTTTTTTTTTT…TC
# CONDITION: aptamer strand: ATP DNA aptamer (quencher-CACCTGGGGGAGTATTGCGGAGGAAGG + anchor), 100 nM annealed; ATP concentration: 500 uM
OUTCOME_MEASURE: switch fluorescence ratio
Form: value (number only, do not type unit).

Example sequences with recorded switch fluorescence ratio:
* TTAAAGAATT | 1
* GTATAAAAGT | 1.01
* TGAATTGGGG | 1.06

I would be grateful if you could share the reported switch fluorescence ratio for ATAAGTTGAT .
1.01

Name the recorded switch fluorescence ratio for TCAATTTGGC .
1.02

Given the entry GCTACGCGCT , report its measured switch fluorescence ratio.
1.36

Which value of switch fluorescence ratio has been reported for CGTTGCGCTG in the records?
1.01

Query (sequence): AAATTTGGGT ; field requested: switch fluorescence ratio
1.01
